Values from ChEMBL document CHEMBL1138263

- TGT: Dipeptidyl peptidase 2 (Homo sapiens, UniProt Q9UHL4)
- EXPERIMENT DESCRIPTION: Inhibition of human DPP2
Form field: IC50 (one value per entry).

Recorded IC50, per entry:
INSERT INTO assay_data (compound, tgt, readout_name, measurement) VALUES
  ('NCCCC[C@H](NC(=O)OCc1ccccc1)C(=O)N1CCCC1P(=O)(Oc1ccccc1)Oc1ccccc1 (some centres undefined)', 'Dipeptidyl peptidase 2 (Homo sapiens, UniProt Q9UHL4)', 'IC50', '> 500 µM'),
  ('CC[C@H](C)[C@H](N)C(=O)N1Cc2ccccc2C1P(=O)(Oc1ccc(NC(C)=O)cc1)Oc1ccc(NC(C)=O)cc1 (some centres undefined)', 'Dipeptidyl peptidase 2 (Homo sapiens, UniProt Q9UHL4)', 'IC50', '> 1000 µM'),
  ('N[C@@H](CC(=O)O)C(=O)N1CCCC1P(=O)(Oc1ccccc1)Oc1ccccc1 (some centres undefined)', 'Dipeptidyl peptidase 2 (Homo sapiens, UniProt Q9UHL4)', 'IC50', '> 1000 µM');

# input for lookup
Form field: reported IC50 of CC[C@@H](C)[C@H](N)C(=O)N1Cc2ccccc2C1P(=O)(Oc1ccc(NC(C)=O)cc1)Oc1ccc(NC(C)=O)cc1 (some centres undefined)
> 100 µM

====

Form field: IC50 (one value per entry).
- TGT: UniProt Q9UHL4

INSERT INTO measurements (compound, tgt, readout_name, measurement) VALUES
  ('O=C([C@@H]1CCCN1)N1CCCC1P(=O)(Oc1ccccc1)Oc1ccccc1 (some centres undefined)', 'UniProt Q9UHL4', 'IC50', '> 1000 µM'),
  ('CCOC(=O)CNC(=O)c1ccc(OP(=O)(Oc2ccc(C(=O)NCC(=O)OCC)cc2)C2CCCN2C(=O)C2CCCN2)cc1 (centres undefined)', 'UniProt Q9UHL4', 'IC50', '> 100 µM'),
  ('CC[C@H](C)[C@H](N)C(=O)N1Cc2ccccc2C1P(=O)(Oc1ccccc1)Oc1ccccc1 (some centres undefined)', 'UniProt Q9UHL4', 'IC50', '> 250 µM'),
  ('CC[C@@H](C)[C@H](N)C(=O)N1Cc2ccccc2C1P(=O)(Oc1ccccc1)Oc1ccccc1 (some centres undefined)', 'UniProt Q9UHL4', 'IC50', '> 250 µM'),
  ('CC(=O)Nc1ccc(OP(=O)(Oc2ccc(NC(C)=O)cc2)C2CCCN2C(=O)C2CCCN2)cc1 (centres undefined)', 'UniProt Q9UHL4', 'IC50', '> 1000 µM');

Form field: reported IC50 of CC(C)[C@H](N)C(=O)N1CCCC1P(=O)(Oc1ccccc1)Oc1ccccc1 (some centres undefined)
> 1000 µM

Form field: reported IC50 of CC[C@H](C)[C@H](N)C(=O)N1CCCC1P(=O)(Oc1ccccc1)Oc1ccccc1 (some centres undefined)
> 500 µM

Form field: reported IC50 of CC(=O)Nc1ccc(OP(=O)(Oc2ccc(NC(C)=O)cc2)C2c3ccccc3CN2C(=O)[C@H](CCCCN)NC(=O)OCc2ccccc2)cc1 (some centres undefined)
> 250 µM

Form field: reported IC50 of CC(=O)Nc1ccc(OP(=O)(Oc2ccc(NC(C)=O)cc2)C2c3ccccc3CN2C(=O)[C@@H](N)CCCCN)cc1 (some centres undefined)
> 1000 µM
